- test-description: Distribution coefficient, logD of compound in n-Octanol/PBS at pH 7.4 incubated for 30 mins under shaking condition by UHPLC-MS analysis
- Assay type: physicochemical
Entries and their measured logD at 0.5 h follow.
Please reply with the number alone, leaving off any unit.

COc1ccc2c(c1)c(CC(=O)N1CCN(CC(=O)N[C@H](C(=O)N3C[C@H](O)C[C@H]3C(=O)N[C@@H](C)c3ccc(-c4scnc4C)cc3)C(C)(C)C)CC1)c(C)n2C(=O)c1ccc(Cl)cc1: 5.3
O=C(CCCCCCCCCCC(=O)N1CCN(C(=O)c2cc(Cc3n[nH]c(=O)c4ccccc34)ccc2F)CC1)NCCNc1cccc2c1C(=O)N(C1CCC(=O)NC1=O)C2=O (centres undefined): 3.64
O=C(COc1c(-c2csc(N3CCOCC3)n2)ccc(F)c1F)NCCCCCCCCCCNc1ccc2nnn(C3CCC(=O)NC3=O)c(=O)c2c1 (centres undefined): 4.93
Cn1c(=O)n(C)c2cc(CNCCOCCNCC3CCN(c4ccc(C(=O)N[C@H]5CC[C@H](Oc6ccc(C#N)c(Cl)c6)CC5)nn4)CC3)ccc21: 3.7
Cc1ncsc1-c1ccc([C@H](C)NC(=O)[C@@H]2C[C@@H](O)CN2C(=O)[C@@H](NC(=O)CCCCn2cc(CN3CCN(C(=O)C[C@@H]4N=C(c5ccc(Cl)cc5)c5c(sc(C)c5C)-n5c(C)nnc54)CC3)nn2)C(C)(C)C)cc1: 4.12

Task: Can you look up the measured logD at 0.5 h of COc1ccc2c(c1)c(CC(=O)NCCCCC(=O)N[C@H](C(=O)N1C[C@H](O)C[C@H]1C(=O)N[C@@H](C)c1ccc(-c3scnc3C)cc1)C(C)(C)C)c(C)n2C(=O)c1ccc(Cl)cc1 for me?
Output: 5.47

Task: Tell me the measured logD at 0.5 h of O=C1CCC(N2C(=O)c3cccc(NCCOCCOCC(=O)N4CCN(C(=O)c5cc(Cc6n[nH]c(=O)c7ccccc67)ccc5F)CC4)c3C2=O)C(=O)N1 (centres undefined) , please.
Output: 1.27

Task: Which logD at 0.5 h is reported for this compound? Cn1c(=O)n(C)c2cc(CNCCOCCOCCNCC3CCN(c4ccc(C(=O)N[C@H]5CC[C@H](Oc6ccc(C#N)c(Cl)c6)CC5)nn4)CC3)ccc21
Output: 2.52

Task: Can you share its logD at 0.5 h? I mean this compound: Cc1ncsc1-c1ccc(CNC(=O)[C@@H]2C[C@@H](O)CN2C(=O)[C@@H](NC(=O)CCCCOCCCCCOCCCCCCNc2cccc3c2C(=O)N(C2CCC(=O)NC2=O)C3=O)C(C)(C)C)cc1 (some centres undefined)
Output: 5.2
